Hey, just so you know, these numbers are from PubChem BioAssay (NCI).

System: SK-MEL-5 melanoma
Test: NCI tumour cell line growth inhibition, 48 h
*1 amine or outer side, *2 acyl side, *3 side chain or, on linkers, in order; H or OH if unused. Where a SMILES comes first, the peptide text is derived from it. [ ]: non-standard residue; d: D form. The star is where a group is joined. X31 = CC(=O)N(C)SCC(N[*:1])C(=O)[*:2]; Cbz = O=C(OCc1ccccc1)*; Bn = c1ccc(C*)cc1
quantity_measured: TGI

compound	TGI
O=C1CCSC2=C1SCc1sccc12	> 100 µM
C1CC[C@H]2SSC3CCCC[C@H]3SSC2C1 (stereo not given in full)	> 100 µM
COc1ccc2nc3ccc(OC)cc3c(SCc3ccccc3)c2c1	> 100 µM

Batch of 4 compounds: report TGI for each.
1. COC1OC(COC(=O)c2cc(O)c(O)c(O)c2)C(OC(=O)c2cc(O)c(O)c(O)c2)C(OC(=O)c2cc(O)c(O)c(O)c2)C1OC(=O)c1cc(O)c(O)c(O)c1 (stereo not given)
2. NN1C(=O)C(CCO)S/C1=N/N=C1/SC(CCO)C(=O)N1N (stereo not given)
3. Cc1ccc(S(=O)OCC23CC4CC(CC(C4)C2)C3)cc1 (stereo not given)
4. O=C(O)c1ccc(C2SCc3nc4ccccc4n32)cc1 (stereo not given)

["> 100 µM", "> 100 µM", "> 100 µM", "> 100 µM"]

Record TGI per entry; entries follow.
1. CC(=O)N(C)SCC(NC(=O)C(Cc1ccccc1)NC(=O)OCc1ccccc1)C(=O)NC(Cc1ccccc1)C(=O)NC(Cc1c[nH]c2ccccc12)C(=O)NC(CCCCNC(=O)OCc1ccccc1)C(=O)NC(C(=O)NC(CSN(C)C(C)=O)C(=O)NC(C(N)=O)C(C)OCc1ccccc1)C(C)OCc1ccccc1 (stereo not given) (Cbz-F[X31]FWK(Cbz)T(Bn)[X31]T(Bn)-NH2; configuration not given here)
2. COP(=O)(OC)C(O)CC(C)C (stereo not given)
3. COc1ccc(C2C=C(c3ccc4c(c3)OCO4)Oc3c2c(=O)oc2ccccc32)cc1OC (stereo not given)
4. O=Cc1ccc(CCl)cc1

1: > 100 µM; 2: > 100 µM; 3: > 100 µM; 4: 30.2 µM

Below are some compounds; for each one, tell me its TGI.
1. Cc1ccc(S(=O)c2sccc2C=O)cc1 (stereo not given)
2. COc1ccc2[nH]c3c(C)c4ccnc(NCCCN(C)CCCNc5ccc6ncn7c8ccccc8c(=O)c5c67)c4c(C)c3c2c1
3. O=C1c2ccccc2-c2c1c1ccccc1c(=O)n2CCCNCCCCNCCCN1C(=O)c2ccccc2C2C(=O)c3ccccc3C21 (stereo not given)

["> 100 µM", "4.61 µM", "3.93 µM"]

Please give TGI, item by item, for the list that follows.
1. CC1OC(OC2C(OC3CCC4(C)C(CCC5(C)C4CC=C4C6CC(C)(C)CCC6(C(=O)O)CCC45C)C3(C)CO)OCC(O)C2O)C(O)C(O)C1O (stereo not given)
2. COC(=O)C1=C(C(=O)OC)SC2(S1)C(C(=O)OC)=C(C(=O)OC)Sc1c2ssc1=Nc1ccc(Cl)cc1
3. COc1ccc(/C=C2\CCC/C(=C\c3ccc(O)c(CN4CCCCC4)c3)C2=O)cc1
4. CC1(c2ccccc2)CC(c2cccc([N+](=O)[O-])c2)=NO1 (stereo not given)
5. CC1(C)[C@@H](OC(=O)CCC(=O)O)CC[C@]2(C)[C@H]3C(=O)C=C4[C@@H]5C[C@@](C)(C(=O)O)CC[C@]5(C)CC[C@@]4(C)[C@]3(C)CC[C@@H]12
6. COC(=O)C1=C(C)C=C(N2CCOCC2)C(C(=O)OC)C1c1ccccc1 (stereo not given)

1: 36.3 µM; 2: 2.96 µM; 3: 39.5 µM; 4: > 100 µM; 5: 86.8 µM; 6: > 10 µM

Please look at the items below and tell me TGI for each one, in order.
1. O=C(CCCl)NNC1=NCCCN1
2. CC1C(OC2O[C@@H]3O[C@@]4(C)CC[C@H]5[C@H](C)CC[C@@H](C2C)[C@@]35O4)O[C@@H]2O[C@@]3(C)CC[C@H]4[C@H](C)CC[C@@H]1[C@@]24O3 (stereo not given in full)

> 100 µM
> 50 µM

Record TGI per entry; entries follow.
1. CSC12c3cc(C)n(-c4ccccc4)c3CC(C)(C)CN1C(=O)C2Oc1ccccc1 (stereo not given)
2. O=C1C=CC(=O)c2c1ccc1c3ccccc3n(Cc3cccc([N+](=O)[O-])c3)c21

> 100 µM
> 100 µM

Field: TGI. Fill in for each record below.
1. COc1cc2c(cc1OC)C(=O)/C(=C/c1cc(OC)c(OC)c(OC)c1)C2
2. CN1CCN(C)C12C=CC=CC21CC1
3. COc1cccc(N(CN2C(=O)CCC2C(=O)O)C(C)=O)c1 (stereo not given)

1: > 100 µM; 2: > 100 µM; 3: > 100 µM

Need TGI for each of these compounds.
1. OCc1c[te]c(-c2ccccc2)c1
2. Cc1c2ccncc2c(C)c2c1[nH]c1ccc(OCC(F)(F)F)cc12
3. CN1CCN(Cc2ccc(NC(=O)c3cccc(C#Cc4cnc(N)c5ncccc45)c3F)cc2C(F)(F)F)CC1

1. > 100 µM
2. 3.35 µM
3. 12.1 µM
